tested_on: Corticotropin-releasing factor receptor 2/Corticotropin-releasing factor-binding protein (Homo sapiens, UniProt P24387+Q13324)
Sequence (Q13324 whole entry): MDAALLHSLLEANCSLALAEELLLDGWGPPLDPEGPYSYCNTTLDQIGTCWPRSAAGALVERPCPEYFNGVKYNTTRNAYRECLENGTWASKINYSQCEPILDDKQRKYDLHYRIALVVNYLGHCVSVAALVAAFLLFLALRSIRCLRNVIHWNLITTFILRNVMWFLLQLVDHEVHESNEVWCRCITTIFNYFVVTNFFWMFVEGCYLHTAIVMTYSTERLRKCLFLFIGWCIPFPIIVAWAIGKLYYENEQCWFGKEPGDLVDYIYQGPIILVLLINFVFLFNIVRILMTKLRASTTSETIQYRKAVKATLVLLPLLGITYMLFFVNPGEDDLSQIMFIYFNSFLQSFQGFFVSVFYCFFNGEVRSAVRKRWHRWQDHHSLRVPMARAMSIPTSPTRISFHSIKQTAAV
Sequence (P24387 whole entry): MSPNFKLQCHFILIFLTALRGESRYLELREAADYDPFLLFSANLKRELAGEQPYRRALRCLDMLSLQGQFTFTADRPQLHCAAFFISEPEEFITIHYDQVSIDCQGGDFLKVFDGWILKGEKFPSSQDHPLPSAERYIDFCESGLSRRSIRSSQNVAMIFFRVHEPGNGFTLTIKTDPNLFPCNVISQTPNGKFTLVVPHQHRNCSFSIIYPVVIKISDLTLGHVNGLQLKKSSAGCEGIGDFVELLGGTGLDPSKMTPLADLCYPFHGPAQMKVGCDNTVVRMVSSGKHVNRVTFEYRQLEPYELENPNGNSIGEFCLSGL
assay_overview: activators of CRF receptor 2 with binding protein – uHTS hits, confirmation (AID 602473)
Format: functional
reported_conditions: read-out: EC50_Mean
Calls of active or inactive are those of the source. Cut-off read from the data, not from the text of the source: actives have a measured EC50 and inactives only a lower limit.
// classify into 1 for active, -1 for inactive

>  <molecule>
CCOC(=O)C(CCCCOc1ccc([N+](=O)[O-])cc1)C(=O)OCC

>  <group_label>
-1

$$$$
>  <molecule>
CCOc1ccc(N=C(N)Nc2nc(C)cc(C)n2)cc1

>  <group_label>
1

$$$$
>  <molecule>
Cc1cc(S(=O)(=O)NCc2ccccc2)ccc1OCC(=O)NCC1CCCO1 (stereo not given)

>  <group_label>
-1

$$$$
>  <molecule>
COc1ccc(/C=c2\s/c(=C/C(=O)c3ccc(C)cc3)[nH]c2=O)cc1OC

>  <group_label>
1

$$$$
>  <molecule>
Cc1cc(NS(=O)(=O)c2c(C(=O)N3CCOCC3)c(C)n(C)c2C)ccc1Br

>  <group_label>
-1

$$$$
>  <molecule>
Cc1ccc(Nc2c(O)ncnc2O)cc1

>  <group_label>
-1

$$$$

Prompt line: Short answer needed: outcome of this test for COc1ccccc1OCC(=O)NCC1CCCN(C(=O)c2ccccc2C(C)=O)C1 (stereo not given) ?
Response line: -1

Prompt line: Tell me the recorded outcome of this test for O=[N+]([O-])c1ccc(O)c(Nc2ncnc3ccccc23)c1 .
Response line: -1

Prompt line: Check the results log: what was the call for CC(C)Cn1cnc2c(SCc3ccccc3)nc(N)nc21 ?
Response line: -1

Prompt line: Answer briefly: the call reported for Cc1ccc(C2C=C(c3ccccc3)Nc3nc(N4C(=O)CCC4=O)nn32)cc1 (stereo not given) in this assay.
Response line: -1
